# credit: paper PMC9603770

Below is a list of entries, each paired with its recorded Km or Ki value.
System: Amp-C (Escherichia coli, UniProt P00811)
Construct: made in house; host or cells: E. coli (DH5 and BL21(DE3) named; pET-28a)
Sequence (P00811 20-377): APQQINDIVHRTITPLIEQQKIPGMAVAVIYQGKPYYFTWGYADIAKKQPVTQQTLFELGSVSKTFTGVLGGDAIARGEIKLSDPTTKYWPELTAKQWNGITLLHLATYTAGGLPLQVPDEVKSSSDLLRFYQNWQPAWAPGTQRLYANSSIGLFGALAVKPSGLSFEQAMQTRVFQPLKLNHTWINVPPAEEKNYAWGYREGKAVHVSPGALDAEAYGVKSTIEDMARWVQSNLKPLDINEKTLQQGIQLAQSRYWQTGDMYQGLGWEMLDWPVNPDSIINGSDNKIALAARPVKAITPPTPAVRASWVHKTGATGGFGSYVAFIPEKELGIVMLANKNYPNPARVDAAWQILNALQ
Protocol description: Steady-state kinetics of antibiotic hydrolysis with inhibitor
Type: biochemical
Setup conditions: cefotaxime, inhibitor concentration as per IC50

Compound | Km or Ki
O=C(O)c1ccccc1C(=O)N1CCN(c2nc(-c3ccccc3)ns2)CC1 [D2573] | 1,522 μΜ
O=C(c1ccccc1)C1CCN(C(=O)CN2C(=O)c3ccccc3C2=O)CC1 [D2148] | 796.6 μΜ
O=C(CN1C(=O)c2ccccc2S1(=O)=O)c1ccc(O)c(O)c1 [D63] | 1,522 μΜ
NC(=O)[C@@H]1CC[C@@H]2CN1C(=O)N2OS(=O)(=O)O [Avibactam, reference compound] | 1,199 μΜ

---

System: Amp-C (Escherichia coli, UniProt P00811)
Construct: made in house; host or cells: E. coli (DH5 and BL21(DE3) named; pET-28a)
Protocol description: Steady-state kinetics of antibiotic hydrolysis with inhibitor
Format: biochemical
Setup conditions: cefotaxime, inhibitor concentration as per IC50
Quantity measured: kcat (S^−1)

Compound | Unit of measure | Reported measurement
O=C(CN1C(=O)c2ccccc2S1(=O)=O)c1ccc(O)c(O)c1 | S^−1 | 1.537
O=C(c1ccccc1)C1CCN(C(=O)CN2C(=O)c3ccccc3C2=O)CC1 | S^−1 | 3.401
O=C(O)c1ccccc1C(=O)N1CCN(c2nc(-c3ccccc3)ns2)CC1 | S^−1 | 1.5
NC(=O)[C@@H]1CC[C@@H]2CN1C(=O)N2OS(=O)(=O)O [Avibactam, reference compound] | S^−1 | 1.417

---

Below is a list of entries, each paired with its recorded kcat value.
System: NDM-1 (Klebsiella pneumoniae, UniProt C7C422)
Construct: made in house; host or cells: E. coli (DH5 and BL21(DE3) named)
Sequence (C7C422 29-270, looked up, species assumed): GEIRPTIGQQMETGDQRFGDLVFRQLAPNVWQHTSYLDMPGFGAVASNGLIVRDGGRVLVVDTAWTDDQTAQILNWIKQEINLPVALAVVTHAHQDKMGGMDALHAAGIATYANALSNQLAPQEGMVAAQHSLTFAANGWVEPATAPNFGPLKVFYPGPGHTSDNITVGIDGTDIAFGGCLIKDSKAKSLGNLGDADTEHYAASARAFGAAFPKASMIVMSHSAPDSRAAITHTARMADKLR
Protocol description: Steady-state kinetics of antibiotic hydrolysis with inhibitor
Format: biochemical
Setup conditions: imipenem, inhibitor concentration as per IC50

Compound | Unit of measure | kcat
O=C(O)c1ccccc1C(=O)N1CCN(c2nc(-c3ccccc3)ns2)CC1 [D2573] | S^−1 | 3.875
NC(=O)[C@@H]1CC[C@@H]2CN1C(=O)N2OS(=O)(=O)O [Avibactam, reference compound] | S^−1 | 2.194
O=C(CN1C(=O)c2ccccc2S1(=O)=O)c1ccc(O)c(O)c1 [D63] | S^−1 | 18.29
O=C(c1ccccc1)C1CCN(C(=O)CN2C(=O)c3ccccc3C2=O)CC1 [D2148] | S^−1 | 20.6

---

Below is a list of entries, each paired with its recorded Km or Ki value.
System: SHV-1 (Klebsiella pneumoniae, UniProt P0AD64)
Construct: made in house; host or cells: E. coli (DH5 and BL21(DE3) named; pET-28a)
Sequence (P0AD64 22-286): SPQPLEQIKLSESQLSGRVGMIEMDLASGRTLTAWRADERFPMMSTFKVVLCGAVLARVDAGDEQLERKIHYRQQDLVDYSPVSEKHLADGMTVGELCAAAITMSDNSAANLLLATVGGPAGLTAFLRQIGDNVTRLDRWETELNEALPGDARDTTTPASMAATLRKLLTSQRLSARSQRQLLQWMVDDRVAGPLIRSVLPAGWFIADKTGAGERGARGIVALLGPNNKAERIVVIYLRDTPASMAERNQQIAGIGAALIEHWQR
Protocol description: Steady-state kinetics of antibiotic hydrolysis with inhibitor
Format: biochemical
Setup conditions: imipenem, inhibitor concentration as per IC50

Molecule | System | Km or Ki, μΜ
NC(=O)[C@@H]1CC[C@@H]2CN1C(=O)N2OS(=O)(=O)O [Avibactam, reference compound] | SHV-1 (Klebsiella pneumoniae, UniProt P0AD64) | 835.4
O=C(c1ccccc1)C1CCN(C(=O)CN2C(=O)c3ccccc3C2=O)CC1 | SHV-1 (Klebsiella pneumoniae, UniProt P0AD64) | 618.4
O=C(CN1C(=O)c2ccccc2S1(=O)=O)c1ccc(O)c(O)c1 | SHV-1 (Klebsiella pneumoniae, UniProt P0AD64) | 851

---

System: TEM-1 (Escherichia coli)
Construct: made in house; host or cells: E. coli (DH5 and BL21(DE3) named; pET-28a)
Sequence (P62593 24-286 limits assumed): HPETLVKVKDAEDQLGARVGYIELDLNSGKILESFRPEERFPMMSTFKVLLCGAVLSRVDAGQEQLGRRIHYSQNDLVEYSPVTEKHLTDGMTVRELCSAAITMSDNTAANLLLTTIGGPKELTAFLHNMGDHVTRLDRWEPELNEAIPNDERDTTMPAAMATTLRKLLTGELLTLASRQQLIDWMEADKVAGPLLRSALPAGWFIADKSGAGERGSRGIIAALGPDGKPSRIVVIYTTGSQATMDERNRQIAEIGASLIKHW
Protocol description: Steady-state kinetics of antibiotic hydrolysis with inhibitor
Assay type: biochemical
Setup conditions: cefotaxime, inhibitor concentration as per IC50
Below is a list of entries, each paired with its recorded kcat value.
Quantity measured: kcat (S^−1)

Compound | Reported measurement
NC(=O)[C@@H]1CC[C@@H]2CN1C(=O)N2OS(=O)(=O)O [Avibactam, reference compound] | 1.339
O=C(CN1C(=O)c2ccccc2S1(=O)=O)c1ccc(O)c(O)c1 | 1.051
O=C(c1ccccc1)C1CCN(C(=O)CN2C(=O)c3ccccc3C2=O)CC1 | 6.332
O=C(O)c1ccccc1C(=O)N1CCN(c2nc(-c3ccccc3)ns2)CC1 | 1.056

---

System: KPC-2 (Klebsiella pneumoniae, UniProt Q9F663)
Construct: made in house; host or cells: E. coli (DH5 and BL21(DE3) named; pET-28a)
Sequence (Q9F663 25-293, looked up, species assumed): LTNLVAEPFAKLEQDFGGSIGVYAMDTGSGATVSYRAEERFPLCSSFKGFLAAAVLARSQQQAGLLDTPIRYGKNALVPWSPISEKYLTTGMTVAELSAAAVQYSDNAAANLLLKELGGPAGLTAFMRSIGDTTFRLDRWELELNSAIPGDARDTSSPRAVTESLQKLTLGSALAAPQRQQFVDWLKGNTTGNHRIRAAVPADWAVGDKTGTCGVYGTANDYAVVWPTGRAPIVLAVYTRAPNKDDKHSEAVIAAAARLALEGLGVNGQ
Protocol description: Steady-state kinetics of antibiotic hydrolysis with inhibitor
Assay type: biochemical
Setup conditions: meropenem, inhibitor concentration as per IC50
Description: The enzyme kinetics parameters (Km, and kcat) for all six proteins/enzymes in combination with different antibiotics (cefotaxime, imipenem, and meropenem), were calculated. […] The steady-state kinetics of all six proteins were determined using the antibiotics:imipenem (Δε295 = −11,500 M^−1 cm^−1), meropenem (Δε297 = −10,940 M^−1 cm^−1), and cefotaxime (Δε264 = −27,250 M^−1 cm^−1). […]
Below is a list of entries, each paired with its recorded kcat value.

Molecule | kcat, S^−1
O=C(O)c1ccccc1C(=O)N1CCN(c2nc(-c3ccccc3)ns2)CC1 [D2573] | 1.02
O=C(c1ccccc1)C1CCN(C(=O)CN2C(=O)c3ccccc3C2=O)CC1 [D2148] | 2.47
NC(=O)[C@@H]1CC[C@@H]2CN1C(=O)N2OS(=O)(=O)O [Avibactam, reference compound] | 0.72
O=C(CN1C(=O)c2ccccc2S1(=O)=O)c1ccc(O)c(O)c1 [D63] | 0.45

---

System: Amp-C (Escherichia coli, UniProt P00811)
Construct: made in house; host or cells: E. coli (DH5 and BL21(DE3) named; pET-28a)
Protocol description: Steady-state kinetics of antibiotic hydrolysis with inhibitor
Assay type: biochemical
Setup conditions: imipenem, inhibitor concentration as per IC50

Compound | kcat
O=C(c1ccccc1)C1CCN(C(=O)CN2C(=O)c3ccccc3C2=O)CC1 | 2.631 S^−1
O=C(CN1C(=O)c2ccccc2S1(=O)=O)c1ccc(O)c(O)c1 | 1.158 S^−1
NC(=O)[C@@H]1CC[C@@H]2CN1C(=O)N2OS(=O)(=O)O [Avibactam, reference compound] | 0.861 S^−1
O=C(O)c1ccccc1C(=O)N1CCN(c2nc(-c3ccccc3)ns2)CC1 | 1.158 S^−1

---

System: CTX-M-15 (Escherichia coli)
Construct: made in house; host or cells: E. coli (DH5 and BL21(DE3) named)
Protocol description: Steady-state kinetics of antibiotic hydrolysis with inhibitor
Format: biochemical
Setup conditions: imipenem, inhibitor concentration as per IC50

Compound | kcat
O=C(CN1C(=O)c2ccccc2S1(=O)=O)c1ccc(O)c(O)c1 [D63] | 5.572 S^−1
O=C(O)c1ccccc1C(=O)N1CCN(c2nc(-c3ccccc3)ns2)CC1 [D2573] | 1.454 S^−1
NC(=O)[C@@H]1CC[C@@H]2CN1C(=O)N2OS(=O)(=O)O [Avibactam, reference compound] | 0.4807 S^−1
O=C(c1ccccc1)C1CCN(C(=O)CN2C(=O)c3ccccc3C2=O)CC1 [D2148] | 2,720 S^−1

---

System: KPC-2 (Klebsiella pneumoniae)
Construct: made in house; host or cells: E. coli (DH5 and BL21(DE3) named; pET-28a)
Protocol description: Steady-state kinetics of antibiotic hydrolysis with inhibitor
Type: biochemical
Setup conditions: imipenem, inhibitor concentration as per IC50

Smiles code | Km or Ki [μΜ]
O=C(c1ccccc1)C1CCN(C(=O)CN2C(=O)c3ccccc3C2=O)CC1 | 301.8
O=C(O)c1ccccc1C(=O)N1CCN(c2nc(-c3ccccc3)ns2)CC1 | 878.8
O=C(CN1C(=O)c2ccccc2S1(=O)=O)c1ccc(O)c(O)c1 | 489.1

---

System: CTX-M-15 (Escherichia coli, UniProt Q9EXV5)
Construct: made in house; host or cells: E. coli (DH5 and BL21(DE3) named)
Sequence (Q9EXV5 29-291, species assumed): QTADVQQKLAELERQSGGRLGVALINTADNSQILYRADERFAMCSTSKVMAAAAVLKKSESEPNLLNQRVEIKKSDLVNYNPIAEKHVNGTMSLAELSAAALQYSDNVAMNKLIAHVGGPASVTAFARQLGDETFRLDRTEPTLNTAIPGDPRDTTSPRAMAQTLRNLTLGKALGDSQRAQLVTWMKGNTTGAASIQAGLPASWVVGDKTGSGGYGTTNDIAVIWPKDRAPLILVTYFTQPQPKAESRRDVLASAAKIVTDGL
Protocol description: Steady-state kinetics of antibiotic hydrolysis with inhibitor
Type: biochemical
Setup conditions: cefotaxime, inhibitor concentration as per IC50
Procedure: The enzyme kinetics parameters (Km, and kcat) for all six proteins/enzymes in combination with different antibiotics (cefotaxime, imipenem, and meropenem), were calculated. […] The steady-state kinetics of all six proteins were determined using the antibiotics:imipenem (Δε295 = −11,500 M^−1 cm^−1), meropenem (Δε297 = −10,940 M^−1 cm^−1), and cefotaxime (Δε264 = −27,250 M^−1 cm^−1). […]
Below is a list of entries, each paired with its recorded kcat value.

Compound | System | kcat (S^−1)
O=C(O)c1ccccc1C(=O)N1CCN(c2nc(-c3ccccc3)ns2)CC1 | CTX-M-15 (Escherichia coli, UniProt Q9EXV5) | 0.9055
O=C(CN1C(=O)c2ccccc2S1(=O)=O)c1ccc(O)c(O)c1 | CTX-M-15 (Escherichia coli, UniProt Q9EXV5) | 0.7320
NC(=O)[C@@H]1CC[C@@H]2CN1C(=O)N2OS(=O)(=O)O [Avibactam, reference compound] | CTX-M-15 (Escherichia coli, UniProt Q9EXV5) | 1.858
O=C(c1ccccc1)C1CCN(C(=O)CN2C(=O)c3ccccc3C2=O)CC1 | CTX-M-15 (Escherichia coli, UniProt Q9EXV5) | 838.6
